- Tested On: T1, Nanog transcription factor (NANOG), SPR ligand (UniProt Q9H9S0 1-305, limits assumed)
- T1 construct: the NANOG preparation is not described
- T1 sequence (Q9H9S0 whole entry): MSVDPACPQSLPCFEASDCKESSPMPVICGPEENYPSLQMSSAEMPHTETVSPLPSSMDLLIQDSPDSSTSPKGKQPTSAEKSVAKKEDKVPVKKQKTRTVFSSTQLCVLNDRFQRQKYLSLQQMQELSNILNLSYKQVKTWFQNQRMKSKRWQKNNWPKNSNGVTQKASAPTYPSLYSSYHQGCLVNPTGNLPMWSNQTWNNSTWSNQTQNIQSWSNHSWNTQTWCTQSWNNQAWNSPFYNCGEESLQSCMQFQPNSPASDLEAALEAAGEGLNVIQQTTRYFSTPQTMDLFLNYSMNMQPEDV
- Experiment: SPR, peptide as analyte, NANOG as ligand
Measured Parameter: Kd (nM)
Report the figure in nM without appending any unit label.

Q) Give the measured Kd of RYCSGKSKKPV (also called cytoplasmic tail of Cx26) [Cx26 blocking peptide 5 (C-terminus)] .
A) 170
